system: Renilla luciferase RNA; assay: Barcoded aptazyme variant library screen: un-cleaved Renilla luciferase RNA by barcode read counts, HEK293-T cells; format: cell-based; conditions: un-cleaved Renilla luciferase RNA, HEK293-T cells cultured with 1 mM theophylline (ON) over without theophylline (OFF); barcode read counts, triplicate
PROPERTY MEASURED: Fold change in RNA expression between the ON state and the OFF state (fold)

>>> assay_result("RA030 (nucleic acid, expressed or natural sequence) DNA: GCGCGTCCTGGATTCGCGGAAACGCGTACATCCAGCTGACGAGTCCCAAATAGGACGAAACGAGAATACCAGCATCGTCTTGATGCCCTTGGAAGTCTCGCGC")
2.3
>>> assay_result("RA210: SEQ ID NO 210; theophylline inducible aptazyme (nucleic acid, chemistry not given here, theophylline inducible aptazyme) GCTGTCACCGGAATACCAGCATCGTCTTGATGCCCTTGGAAGTCCGGTCTGATGAGTCCAAAAAGGACGAAACAGC")
1.2
>>> assay_result("RA011 (nucleic acid, expressed or natural sequence) DNA: GCGCGTCCTGGATTCGCGGAAACGCGTACATCCAGCTGACGAGTCCCGGAATACCAGCATCGTCTTGATGCCCTTGGAAGTCCGCAAATAGGACGAAACGCGC")
3.6
>>> assay_result("RA142 (nucleic acid, expressed or natural sequence) DNA: GCGCGTCCTGGATTCGCGGAAACGCGTACGGAATACCAGCATCGTCTTGATGCCCTTGGAAGTCCATCCAGCTGACGAGTCCCAAATAGGACGAAACGCGC")
1.4
>>> assay_result("RA029 (nucleic acid, expressed or natural sequence) DNA: GCGCGTCCTGGATTCGCGGAAACGGGAATACCAGCATCGTCTTGATGCCCTTGGAAGTCCCGTACATCCAGCTGACGAGTCCCAAATAGGACGAAACGCGC")
2.3
>>> assay_result("RA237 (nucleic acid, expressed or natural sequence) DNA: GCGCGTCCTGGATTCGCGGAAACGCGTACATCCAGCTGACGGAGAATACCAGCATCGTCTTGATGCCCTTGGAAGTCTCAGTCCCAAATAGGACGAAACGCGC")
1.1
>>> assay_result("RA164 (nucleic acid, expressed or natural sequence) DNA: GCGCGTCCTGGATTCGCGGAAACGCGTACATCCAGCTGACGAGTCCCAAATAGGACGCGAGAATACCAGCATCGTCTTGATGCCCTTGGAAGTCTCGAAACGCGC")
1.3
>>> assay_result("RA137 (nucleic acid, expressed or natural sequence) DNA: GCGCGTCCTGGATTCGCGGAAACGCGTACGAGAATACCAGCATCGTCTTGATGCCCTTGGAAGTCTCATCCAGCTGACGAGTCCCAAATAGGACGAAACGCGC")
1.4
>>> assay_result("RA227 (nucleic acid, expressed or natural sequence) DNA: GCGCGTCCGAGAATACCAGCATCGTCTTGATGCCCTTGGAAGTCTCGCTGGATTCGCGGAAACGCGTACATCCAGCTGACGAGTCCCAAATAGGACGAAACGCGC")
1.1
>>> assay_result("RA103 (nucleic acid, expressed or natural sequence) DNA: GCGCGTCCTGGATTCGCGGAAACGCGTACATCCAGCTGACGGAATACCAGCATCGTCTTGATGCCCTTGGAAGTCCGAGTCCCAAATAGGACGAAACGCGC")
1.6
>>> assay_result("RA043 (nucleic acid, expressed or natural sequence) DNA: GCGCGTCCTCGAGAATACCAGCATCGTCTTGATGCCCTTGGAAGTCTCGGGATTCGCGGAAACGCGTACATCCAGCTGACGAGTCCCAAATAGGACGAAACGCGC")
2.1
>>> assay_result("RA044 (nucleic acid, expressed or natural sequence) DNA: GCGGAGAATACCAGCATCGTCTTGATGCCCTTGGAAGTCTCCGTCCTGGATTCGCGGAAACGCGTACATCCAGCTGACGAGTCCCAAATAGGACGAAACGCGC")
2.1
>>> assay_result("RA262 (nucleic acid, expressed or natural sequence) DNA: GCTGTCACCGGAATACCAGCATCGTCTTGATGCCCTTGGAAGTCCGGTCTGATGAGTCCCATAAGGACGAAACAGC")
1.1
>>> assay_result("RA179 (nucleic acid, expressed or natural sequence) DNA: GCGCGTCCTGGATTCGCGGAAACGCGTACATCCAGCTCGGAATACCAGCATCGTCTTGATGCCCTTGGAAGTCCGGACGAGTCCCAAATAGGACGAAACGCGC")
1.3
>>> assay_result("RA059 (nucleic acid, expressed or natural sequence) DNA: GCGCGTCCTGGATTCCCGGAATACCAGCATCGTCTTGATGCCCTTGGAAGTCCGGGCGGAAACGCGTACATCCAGCTGACGAGTCCCAAATAGGACGAAACGCGC")
1.9
